Attribution: ChEMBL document CHEMBL1124186

Measured MIC, listed per entry.
- System: Staphylococcus epidermidis
- measurementDescription: In vitro antimicrobial activity against Staphylococcus epidermidis EPI1
- Format: functional
endpointName: MIC (µg/mL)

[[record]]
compoundstructure = "CC[C@H]1OC(=O)C[C@@H](O)[C@H](C)[C@@H](O[C@@H]2O[C@H](C)[C@@H](O)[C@H](N(C)C)[C@H]2O)[C@@H](CCN=[N+]=[N-])C[C@@H](C)C(=O)/C=C/C(C)=C/[C@@H]1CO[C@@H]1O[C@H](C)[C@@H](O)[C@@H](OC)[C@H]1OC"
observedvalue = 0.12

[[record]]
compoundstructure = "CC[C@H]1OC(=O)C[C@@H](O)[C@H](C)[C@@H](O[C@@H]2O[C@H](C)[C@@H](O)[C@H](N(C)C)[C@H]2O)[C@@H](CCN2C(=O)c3ccccc3C2=O)C[C@@H](C)C(=O)/C=C/C(C)=C/[C@@H]1C"
observedvalue = 8

[[record]]
compoundstructure = "CC[C@H]1OC(=O)C[C@@H](O)[C@H](C)[C@@H](O[C@@H]2O[C@H](C)[C@@H](O[C@H]3C[C@@](C)(O)[C@@H](O)[C@H](C)O3)[C@H](N(C)C)[C@H]2O)[C@@H](C)C[C@@H](C)C(=O)/C=C/C(C)=C/[C@@H]1CO"
observedvalue = 16

[[record]]
compoundstructure = "CC[C@H]1OC(=O)C[C@@H](O)[C@H](C)[C@@H](O[C@@H]2O[C@H](C)[C@@H](O[C@H]3C[C@@](C)(O)[C@@H](O)[C@H](C)O3)[C@H](N(C)C)[C@H]2O)[C@@H](CCOC(C(F)(F)F)C(F)(F)F)C[C@@H](C)C(=O)/C=C/C(C)=C/[C@@H]1CO[C@@H]1O[C@H](C)[C@@H](O)[C@@H](OC)[C@H]1OC"
observedvalue = 4

